- Tested on: P. falciparum NF54
- TEST: In vitro microplate assay against P. falciparum (3H-hypoxanthine incorporation)
- Format: cell-based, Plasmodium falciparum
- RECORDED_CONDITIONS: Plasmodium falciparum, NF54, read-out: P.f. NF54 IC50
QUANTITY: pIC50
Note on pIC50: it is the negative log10 of concentration, concentration in mol/L.

Just so you know, measured pIC50 for CCN(CC)CCCC(C)Nc1ccnc2cc(Cl)ccc12 (stereo not shown) [CQ, chloroquine, reference compound] came out at 8.05

====

// reported melting point for each item listed
Please don't drop the unit; write it after the number.

Nc1cccc(-c2nonc2NC(=O)c2ccccc2)c1	178 °C

Just so you know, measured melting point for `Nc1ccc(-c2nonc2NC(=O)c2cccc(C(F)(F)F)c2)cc1` came out at 154 °C

Just so you know, measured melting point for `O=C(Nc1nonc1-c1ccc(F)cc1)c1cccc(F)c1` came out at 169 °C

Just so you know, measured melting point for `O=C(Nc1nonc1-c1ccc([N+](=O)[O-])cc1)c1cccc(C(F)(F)F)c1` came out at 147 °C

Just so you know, measured melting point for `Cc1cccc(C(=O)Nc2nonc2-c2cccc([N+](=O)[O-])c2)c1` came out at 158 °C

Just so you know, measured melting point for `O=C(Nc1nonc1-c1cccc([N+](=O)[O-])c1)c1cccc(F)c1` came out at 174 °C

Just so you know, measured melting point for `O=C(Nc1nonc1-c1ccc([N+](=O)[O-])cc1)c1ccccc1` came out at 208 °C

====

- TEST: In vitro cytotoxicity with L-6 cells (resazurin)
- Format: cell-based, rat
- RECORDED_CONDITIONS: rat
// reported IC50 at 72 h for each item listed
API: value field is a number in µM; no unit string.

Just so you know, measured IC50 at 72 h for `O=C(Nc1nonc1-c1cccc([N+](=O)[O-])c1)c1cccc(C(F)(F)F)c1` came out at 1.71

Just so you know, measured IC50 at 72 h for `Nc1ccc(-c2nonc2NC(=O)c2ccccc2)cc1` came out at 123

Just so you know, measured IC50 at 72 h for `Cc1cccc(C(=O)Nc2nonc2-c2ccc(N)cc2)c1` came out at 107

Just so you know, measured IC50 at 72 h for `COc1ccc(C(=O)Nc2nonc2-c2cccc([N+](=O)[O-])c2)cc1Cl` came out at 5.52

Just so you know, measured IC50 at 72 h for `O=C(Nc1nonc1-c1ccc([N+](=O)[O-])cc1)c1cccc(F)c1` came out at 4.31

Just so you know, measured IC50 at 72 h for `O=C(Nc1nonc1-c1ccc(Cl)cc1)c1cccc(C(F)(F)F)c1` came out at 5.06

Just so you know, measured IC50 at 72 h for `Nc1cccc(-c2nonc2NC(=O)c2cccc(C(F)(F)F)c2)c1` came out at 21.2

====

- STUDY_SYSTEM: CYP3A4 (Homo sapiens)
- Sequence (P08684 2-503 limits assumed): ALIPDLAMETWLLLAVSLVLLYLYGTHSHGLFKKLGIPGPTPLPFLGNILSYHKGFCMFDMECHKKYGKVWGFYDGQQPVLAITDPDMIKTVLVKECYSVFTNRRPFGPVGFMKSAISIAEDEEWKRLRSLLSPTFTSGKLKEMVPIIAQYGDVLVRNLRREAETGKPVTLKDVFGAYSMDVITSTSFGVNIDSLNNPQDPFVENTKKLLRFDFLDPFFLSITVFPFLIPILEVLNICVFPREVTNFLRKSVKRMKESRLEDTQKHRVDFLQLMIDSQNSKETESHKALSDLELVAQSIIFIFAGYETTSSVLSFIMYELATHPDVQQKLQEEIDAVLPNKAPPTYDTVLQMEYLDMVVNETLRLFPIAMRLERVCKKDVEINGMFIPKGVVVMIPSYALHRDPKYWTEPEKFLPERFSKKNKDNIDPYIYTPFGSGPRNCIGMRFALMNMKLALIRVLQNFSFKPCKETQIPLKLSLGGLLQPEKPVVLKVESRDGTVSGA
- TEST: Cytochrome P450 3A4 inhibition assay (P450-Glo, Luciferin-IPA)
- RECORDED_CONDITIONS: recombinant human CYP3A4 Supersomes (+ oxidoreductase + b5), pH 7.4, probe Luciferin-IPA
QUANTITY: inhibition at 10 min, 20 µM (%)
API: value field is a number in %; no unit string.

O=C(Nc1nonc1-c1cccc([N+](=O)[O-])c1)c1cccc(C(F)(F)F)c1 [Compound 44]	94

Just so you know, measured inhibition at 10 min, 20 µM for O=C(Nc1nonc1-c1ccc([N+](=O)[O-])cc1)c1ccccc1 [Compound 37] came out at 46

Just so you know, measured inhibition at 10 min, 20 µM for Cc1cccc(C(=O)Nc2nonc2-c2cccc(N)c2)c1 [Compound 61] came out at 99

Just so you know, measured inhibition at 10 min, 20 µM for Cc1cccc(C(=O)Nc2nonc2-c2cccc([N+](=O)[O-])c2)c1 [Compound 42] came out at 87

Just so you know, measured inhibition at 10 min, 20 µM for Cc1cccc(C(=O)Nc2nonc2-c2ccc(F)cc2)c1 [Compound 49] came out at 84
